biological target: human recombinant serotonin (5-Hydroxytryptamine) 5-HT2A receptor (Homo sapiens, UniProt P28223); construct: expressed in transfected cells; host or cells: CHO-K1 cells; experiment: Serotonin 5-HT2A radioligand binding ([3H]Ketanserin); details: 1 h; read-out: Percent Inhibition of ligand binding Serotonin (1 μM ligand concentration) 5-HT2A
Sequence (P28223 whole entry): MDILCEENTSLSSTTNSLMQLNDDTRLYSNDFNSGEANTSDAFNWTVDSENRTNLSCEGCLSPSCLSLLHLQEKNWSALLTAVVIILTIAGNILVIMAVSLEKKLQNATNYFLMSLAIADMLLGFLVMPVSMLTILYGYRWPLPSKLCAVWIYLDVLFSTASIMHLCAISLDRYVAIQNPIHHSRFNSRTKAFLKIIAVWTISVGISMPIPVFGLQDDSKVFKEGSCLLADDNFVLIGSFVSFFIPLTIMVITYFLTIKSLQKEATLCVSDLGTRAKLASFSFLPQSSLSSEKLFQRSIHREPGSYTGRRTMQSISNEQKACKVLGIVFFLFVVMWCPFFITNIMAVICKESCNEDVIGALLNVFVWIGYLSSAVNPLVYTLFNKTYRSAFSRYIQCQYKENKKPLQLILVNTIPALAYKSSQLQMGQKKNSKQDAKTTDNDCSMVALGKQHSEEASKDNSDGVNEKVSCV
endpoint: inhibition at 1 µM (%)
Numbers only, in %.

CN1CCc2c(n(CCCC(=O)N3CCCCC3)c3ccc(Cl)cc23)C1 [Compound 44] = 73
Cc1ccc(CCn2c3c(c4cc(Cl)ccc42)CCN(C)C3C)cn1 (stereo not drawn) [Compound 80] = 56
CCC1c2c(c3cc(C)ccc3n2C(=O)Cc2ccc(F)cc2)CCN1C (stereo not drawn) [Compound 159] = 89
CCC1c2c(c3cc(C)ccc3n2/C=C(\C)c2ccc(Cl)cc2Cl)CCN1C (stereo not drawn) [Compound 170] = 96
Cc1ccc(C(O)Cn2c3c(c4cc(C)ccc42)CCN(C)C3)cc1 (stereo not drawn) [Compound 72] = 96

Provide inhibition at 1 µM values for the following items, in order.
1. CC(C)CCN(C)C(=O)Cn1c2c(c3cc(Cl)ccc31)CCN(C)C2 [Compound 14]
2. Cc1ccc2c(c1)c1c(n2CCc2ccc(C(F)(F)F)nc2)CN(C)CC1 [Compound 5]
3. Cc1ccc2c(c1)c1c(n2CC(=O)O)CN(C)CC1 [Compound 53]
4. CCC1c2c(c3cc(Cl)ccc3n2/C=C(\C)c2cccnc2)CCN1C (stereo not drawn) [Compound 108]

Return:
1. 27
2. 51
3. -6
4. 45

====

target: human recombinant dopamine D2L receptor (Homo sapiens); construct: expressed in transfected cells; host or cells: CHO cells; test: Dopamine D2L radioligand binding ([3H]Spiperone); settings: 2 h, 1 μM ligand conc.; read-out: Percent Inhibition of ligand binding Dopamine (1 μM ligand conc.) D2L
Sequence (P14416 whole entry): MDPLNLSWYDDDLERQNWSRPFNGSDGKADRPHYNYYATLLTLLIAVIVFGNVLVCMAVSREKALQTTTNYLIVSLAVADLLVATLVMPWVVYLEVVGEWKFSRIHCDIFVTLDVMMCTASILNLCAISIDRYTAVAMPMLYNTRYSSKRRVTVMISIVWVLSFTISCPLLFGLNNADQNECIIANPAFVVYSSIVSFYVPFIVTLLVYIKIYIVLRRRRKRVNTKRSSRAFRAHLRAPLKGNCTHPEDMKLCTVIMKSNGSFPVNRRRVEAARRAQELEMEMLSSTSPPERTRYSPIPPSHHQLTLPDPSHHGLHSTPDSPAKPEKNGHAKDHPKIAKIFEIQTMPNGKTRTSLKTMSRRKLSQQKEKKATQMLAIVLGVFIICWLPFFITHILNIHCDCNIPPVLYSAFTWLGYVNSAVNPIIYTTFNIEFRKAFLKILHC
Task for the reader: assign each of the following compounds its reported inhibition at 1 µM.
Give bare numbers, in %.

CCC1c2c(c3cc(Cl)ccc3n2/C=C(\C)c2cccnc2)CCN1C (centres unmarked) = -4
COc1ccc(C#Cn2c3c(c4cc(Cl)ccc42)CCN(C)C3)cc1F = 12
CCC1c2c(c3cc(C)ccc3n2C(=O)Cc2ccc(F)cc2)CCN1C (centres unmarked) = -9
CCC1c2c(c3cc(Cl)ccc3n2CCc2ccc(F)cc2)CCN1C (centres unmarked) = 11

Would you kindly look at the next entry?
Enquiry: What value of inhibition at 1 µM has been reported for the following compound? `Cc1ccc2c(c1)c1c(n2CC(=O)O)CN(C)CC1`
Return: 6

====

Task for the reader: assign each of the following compounds its reported inhibition at 0.03 µM.
molecular target: human recombinant serotonin (5-Hydroxytryptamine) 5-HT6 receptor (Homo sapiens); construct: expressed in transfected cells; host or cells: human HeLa cells; test: Serotonin 5-HT6 radioligand binding ([3H]LSD); settings: compound concentration 0.03 μM; read-out: Percentage inhibition of ligand binding to 5-HT6 receptor
Sequence (P50406 whole entry): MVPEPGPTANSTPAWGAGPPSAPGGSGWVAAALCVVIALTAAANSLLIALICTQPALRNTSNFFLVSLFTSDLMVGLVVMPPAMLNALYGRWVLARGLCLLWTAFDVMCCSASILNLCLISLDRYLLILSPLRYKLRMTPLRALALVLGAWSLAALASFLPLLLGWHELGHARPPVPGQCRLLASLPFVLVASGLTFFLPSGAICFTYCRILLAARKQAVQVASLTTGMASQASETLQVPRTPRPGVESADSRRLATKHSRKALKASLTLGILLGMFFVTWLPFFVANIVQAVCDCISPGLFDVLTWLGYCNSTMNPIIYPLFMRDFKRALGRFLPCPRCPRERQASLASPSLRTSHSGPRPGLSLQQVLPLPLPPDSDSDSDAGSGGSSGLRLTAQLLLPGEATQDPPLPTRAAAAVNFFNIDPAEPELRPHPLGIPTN
Numbers only, in %.

Example entries begin here.
C/C(=C\n1c2c(c3cc(C)ccc31)CCN(C)C2)c1ccc(F)cc1 [Compound 91] = 68
C/C(=C\n1c2c(c3cc(Cl)ccc31)CCN(C)C2)c1ccc(F)cc1 [Compound 90] = 58
Cc1ccc2c(c1)c1c(n2/C=C/c2ccccc2)CN(C)CC1 [Compound 92] = 28

Would you kindly look at the next entry?
Enquiry: What value of inhibition at 0.03 µM has been reported for the following compound? C/C(=C\n1c2c(c3cc(C)ccc31)CCN(C)C2C)c1ccccc1F (stereo not shown) [Compound 166]
Return: 16
